# tgt: human CTLA-4 (human) (UniProt P16410)
# Sequence (P16410 36-223): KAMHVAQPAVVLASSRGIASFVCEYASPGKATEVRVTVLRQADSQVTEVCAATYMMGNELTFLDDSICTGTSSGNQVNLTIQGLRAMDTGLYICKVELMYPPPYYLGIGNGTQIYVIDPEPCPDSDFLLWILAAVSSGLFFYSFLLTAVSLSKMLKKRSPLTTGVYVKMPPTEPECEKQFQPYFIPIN
# run description: flow cytometry, CHO cells expressing huCTLA4; MFI ratio to WT CD80 ECD-Fc (R&D)
result type: Fold change to WT CD80 (fold)

variant CD80 IgV-Fc H18Y/Y31H/E35D/M47V/A71G/L85Q (Fc fusion) VIHVTKEVKEVATLSCGYNVSVEELAQTRIHWQKDKKMVLTMMSGDVNIWPEYKNRTIFDITNNLSIVILGLRPSDEGTYECVVQKYEKDAFKREHLAEVTLSVKAD
0.02
variant CD80 IgV-Fc V22A/E23D/Q33L/E35D/M47V (Fc fusion) VIHVTKEVKEVATLSCGHNVSADELAQTRIYWLKDKKMVLTMMSGDVNIWPEYKNRTIFDITNNLSIVILALRPSDEGTYECVVLKYEKDAFKREHLAEVTLSVKAD
0.02
variant CD80 IgV-Fc Q33L/E35D/M47L/V68M/L85Q/E88D (Fc fusion) VIHVTKEVKEVATLSCGHNVSVEELAQTRIYWLKDKKMVLTMMSGDLNIWPEYKNRTIFDITNNLSIMILALRPSDEGTYECVVQKYDKDAFKREHLAEVTLSVKAD
0.02
variant CD80 IgV-Fc Q33L/E35D/M43V/M47I/A71G (Fc fusion) VIHVTKEVKEVATLSCGHNVSVEELAQTRIYWLKDKKMVLTMVSGDINIWPEYKNRTIFDITNNLSIVILGLRPSDEGTYECVVLKYEKDAFKREHLAEVTLSVKAD
0.08
variant CD80 IgV-Fc H18Y/A26E/Q33L/E35D/M47L/L85Q (Fc fusion) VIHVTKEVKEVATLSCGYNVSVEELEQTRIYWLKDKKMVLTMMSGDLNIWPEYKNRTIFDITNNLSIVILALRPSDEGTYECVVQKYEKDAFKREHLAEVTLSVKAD
0.01

(a) variant CD80 IgV-Fc E35D/M47I/E77A/L85Q/R94W (Fc fusion) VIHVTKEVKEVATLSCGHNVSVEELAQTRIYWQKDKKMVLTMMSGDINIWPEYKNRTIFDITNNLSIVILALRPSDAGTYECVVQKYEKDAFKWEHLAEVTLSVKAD
(b) variant CD80 IgV-Fc Q33L/E35D/M47I/T62N/L85Q (Fc fusion) VIHVTKEVKEVATLSCGHNVSVEELAQTRIYWLKDKKMVLTMMSGDINIWPEYKNRTIFDINNNLSIVILALRPSDEGTYECVVQKYEKDAFKREHLAEVTLSVKAD
Data request: Compare a and b and name the one whose reported Fold change to WT CD80 is smaller. Provide the label of your selected option as the answer.
Data returned: b
(b: 0.01 fold, a: 1.38 fold)

(a) variant CD80 IgV-Fc E7D/E35D/M47I/L97Q (Fc fusion) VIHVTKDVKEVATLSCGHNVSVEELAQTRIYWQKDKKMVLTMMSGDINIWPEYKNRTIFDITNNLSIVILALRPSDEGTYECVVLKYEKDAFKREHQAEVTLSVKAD
(b) variant CD80 IgV-Fc A26E/Q33L/E35D/M47L/L85Q (Fc fusion) VIHVTKEVKEVATLSCGHNVSVEELEQTRIYWLKDKKMVLTMMSGDLNIWPEYKNRTIFDITNNLSIVILALRPSDEGTYECVVQKYEKDAFKREHLAEVTLSVKAD
Data request: Compare a and b and name the one whose reported Fold change to WT CD80 is smaller. Provide the label of your selected option as the answer.
Data returned: b
(b: 0.01 fold, a: 1.52 fold)
